Data origin: ChEMBL document CHEMBL5727003

# subject of test: Plasma kallikrein (Homo sapiens)
# Sequence (P03952 20-390 limits assumed): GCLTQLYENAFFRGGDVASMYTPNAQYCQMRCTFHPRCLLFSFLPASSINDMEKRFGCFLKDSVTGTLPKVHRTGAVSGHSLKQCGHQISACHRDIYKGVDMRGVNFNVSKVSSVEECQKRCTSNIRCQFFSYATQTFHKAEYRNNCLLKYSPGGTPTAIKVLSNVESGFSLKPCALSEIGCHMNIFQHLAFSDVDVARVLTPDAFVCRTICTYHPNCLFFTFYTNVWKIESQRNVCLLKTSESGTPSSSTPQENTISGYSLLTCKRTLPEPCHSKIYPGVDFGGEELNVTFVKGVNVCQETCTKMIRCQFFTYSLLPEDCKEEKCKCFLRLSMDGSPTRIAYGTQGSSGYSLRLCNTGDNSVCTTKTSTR
# Sequence (P03952 391-638 limits assumed): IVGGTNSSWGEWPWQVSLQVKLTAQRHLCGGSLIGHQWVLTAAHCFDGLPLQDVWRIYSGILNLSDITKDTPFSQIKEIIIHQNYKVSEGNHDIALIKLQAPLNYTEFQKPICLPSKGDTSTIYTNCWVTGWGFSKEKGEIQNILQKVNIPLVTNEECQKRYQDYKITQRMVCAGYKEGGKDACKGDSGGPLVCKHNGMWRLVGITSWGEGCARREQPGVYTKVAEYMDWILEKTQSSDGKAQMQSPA
# method: In Vitro Enzyme Inhibition: A 10 mM solution of the test compound was made in DMSO. This solution was serially diluted 1:5 in DMSO to yield 2000, 400, 80, 16, 3.2, 0.64, 0.128, 0.0256 and 0.00512 μM compound test solutions. A control tube containing only DMSO is included. 16 μL of each compound test solution was combined with 384 μL of assay buffer (50 mM Tris-HCl pH 7.5, 150 mM NaCl, 0.01% Triton X-100) to yield a “4× test compound buffer stock”.Separately, a 40 nM solution of human Plasma Kallikrein (Abcam) and a 93.6 μM solution Pro-Phe-Arg-AMC (Bachem) were made using assay buffer. These solutions are hereby referred to as 4×hPK and 2×PFR-AMC, respectively.60 μL of each 4× test compound buffer stock was combined with 60 μL of 4×hPK to yield 120 μL of “2× test compound buffer stock/2×hPK”. 50 μL was removed from this mixture and placed into duplicate wells on a Microfluor 1Black U-bottom microtiter plate (Thermo Scientific). This plate was incubated for 5 minutes at 37° C. To each well, 50 μL of pre-warmed 2×PFR-AMC was added to start the enzymatic reaction. Cleavage of PFR-AMC was monitored in a Biotek Synergy H4 reader set at 37° C. Readings are taken every 43 seconds for 1 hour. The highest mean velocity over 20 reads (˜15 minutes) is used to calculate the IC50. The IC50 is calculated using the Gen5 (Biotek Instruments).
measured parameter: IC50

Reference set, count: 3
Fill in: IC50 of Cc1cc(N)nc(C)c1CNC(=O)c1cc(C(F)(F)F)n(Cc2ccc3ncc(Cl)cc3c2)n1 is ___ 1000 to 10000 nM

Fill in: IC50 of Cc1cc(N)nc(C)c1CNC(=O)c1cn(Cc2ccc3ncc(Cl)cc3c2)c(CO)n1 is ___ < 100 nM

Fill in: IC50 of Cc1cc(N)nc(C)c1CNC(=O)c1cn(Cc2ccc3ncc(Cl)cc3c2)c2cccnc12 is ___ < 100 nM

***
Fill in: IC50 of Cc1cc(N)nc(C)c1CNC(=O)c1ccn(Cc2ccc3ncc(Cl)cc3c2)n1 is ___ < 100 nM

Fill in: IC50 of Cc1cc(N)nc(C)c1CNC(=O)c1nn(Cc2ccc3ncc(Cl)cc3c2)nc1C(F)(F)F is ___ < 100 nM
